# studySystem: KLK1 (Homo sapiens, UniProt P06870)
# Sequence (P06870 25-262, species assumed): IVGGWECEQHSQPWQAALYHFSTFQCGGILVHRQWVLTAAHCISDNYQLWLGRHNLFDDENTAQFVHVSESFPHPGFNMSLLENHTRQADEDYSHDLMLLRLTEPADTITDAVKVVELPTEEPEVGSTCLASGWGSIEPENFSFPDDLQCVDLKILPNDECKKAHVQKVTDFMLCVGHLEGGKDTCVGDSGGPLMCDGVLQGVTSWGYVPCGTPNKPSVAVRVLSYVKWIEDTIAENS
# assayComment: Inhibitory activity against KLK1 in vitro (biochemical assay)
# experimentalContext: values in nM
# Lookup of reported IC50 keyed by entry

{"chemicalStructure": "COCc1nn(Cc2ccc3ncc(Cl)cc3c2)cc1C(=O)NCc1c(C)cc(N)nc1C", "IC50": "< 500 nM"}
{"chemicalStructure": "Cc1cc(N)nc(C)c1CNC(=O)c1cn(Cc2cn3cc(C4CC4)ccc3n2)nn1", "IC50": "< 500 nM"}
{"chemicalStructure": "COCc1nn(Cc2c(F)c(F)c(Cn3ccccc3=O)c(F)c2F)cc1C(=O)NCc1c(C)cc(N)nc1C", "IC50": "> 500 nM"}
{"chemicalStructure": "Cc1cc(N)nc(C)c1CNC(=O)c1ccc(Cc2ccc3ncc(Cl)cc3c2)s1", "IC50": "< 500 nM"}

---

# studySystem: plasma kallikrein (PKa) (Homo sapiens)
# Construct: purchased R & D 2497-SE
# Sequence (P03952 391-638 limits assumed): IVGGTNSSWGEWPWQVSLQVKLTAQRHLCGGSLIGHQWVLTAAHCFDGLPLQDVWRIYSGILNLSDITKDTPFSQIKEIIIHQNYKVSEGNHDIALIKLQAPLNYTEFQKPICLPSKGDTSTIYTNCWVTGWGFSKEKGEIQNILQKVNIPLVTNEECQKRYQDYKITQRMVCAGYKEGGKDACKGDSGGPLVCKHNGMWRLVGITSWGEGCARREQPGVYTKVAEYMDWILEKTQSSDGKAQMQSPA
# Sequence (P03952 20-390 partner limits assumed): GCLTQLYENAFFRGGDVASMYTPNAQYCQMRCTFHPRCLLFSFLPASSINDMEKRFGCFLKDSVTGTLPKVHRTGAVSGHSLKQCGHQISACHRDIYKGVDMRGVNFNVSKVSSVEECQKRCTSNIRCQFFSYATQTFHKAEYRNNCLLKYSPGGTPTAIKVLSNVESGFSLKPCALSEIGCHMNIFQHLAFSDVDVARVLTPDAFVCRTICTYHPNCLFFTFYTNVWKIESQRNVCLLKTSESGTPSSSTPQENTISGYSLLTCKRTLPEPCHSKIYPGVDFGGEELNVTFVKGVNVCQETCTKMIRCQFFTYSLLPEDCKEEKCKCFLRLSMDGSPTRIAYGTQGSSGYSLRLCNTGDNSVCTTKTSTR
# assayComment: Inhibitory activity against plasma kallikrein in vitro (fluorescence intensity enzyme assay, Pro-Phe-Arg-AMC substrate)
# Format: biochemical
# experimentalContext: plasma kallikrein enzyme assay, Pro-Phe-Arg-AMC substrate; read-out: PKa IC50
pIC50: −log10 of the molar value.
Please use Y whenever pIC50 is not below 9, and N whenever it is.

{"compound": "COc1ccc(F)c(CNC(=O)c2cn(Cc3ccc(Cn4cc(F)ccc4=O)cc3)nc2N[C@H]2CCOC2)c1F [Compound 298]", "className": "N"}
{"compound": "Cc1nc(N)c(C)c(C)c1CNC(=O)c1cnn(Cc2ccc(Cn3ccccc3=O)cc2)c1 [Compound 256]", "className": "Y"}
{"compound": "CC(C)CNc1ccnc(CNC(=O)c2cn(Cc3ccc(Cn4ccccc4=O)cc3)nc2C2COC2)c1F [Compound 269]", "className": "N"}
{"compound": "COc1ccnc(CNC(=O)c2cn(Cc3ccc(Cn4c(C(F)(F)F)nccc4=O)cc3)nc2C(F)(F)F)c1F [Compound 198]", "className": "N"}
{"compound": "COCc1nn(Cc2ccc(Cn3c(=O)sc4ccccc43)cc2)cc1C(=O)NCc1nccc(OC)c1F [Compound 140]", "className": "N"}
{"compound": "COCc1nn(Cc2ccc(Cn3ccccc3=O)cc2)cc1C(=O)NCc1c(C)cncc1C [Compound 114]", "className": "N"}
{"compound": "COCc1nn(Cc2ccc(Cn3ccccc3=O)cc2)cc1C(=O)NCc1nc2c(s1)CNCC2 [Compound 152]", "className": "N"}
{"compound": "COc1ccnc(CNC(=O)c2cn(Cc3ccc(Cn4ccccc4=O)cc3)nc2COC2CCCOC2)c1F (stereo not shown) [Compound 294]", "className": "N"}
{"compound": "Cc1cc(N)nc(C)c1CNC(=O)c1ncn(Cc2ccc(Cn3ccccc3=O)cc2)n1 [Compound 11]", "className": "Y"}
{"compound": "N#Cc1cc(N2CC3C(C2)C3(F)F)ccc1Cn1cnc(C(=O)NC2CCc3cc(N)ncc32)n1 (single isomer, unassigned) [Compound 54]", "className": "Y"}
{"compound": "Cc1cc(N)nc(C)c1CNC(=O)c1ccc(Cc2ccc3ncc(Cl)cc3c2)s1 [Compound 3]", "className": "N"}
{"compound": "O=C(NCc1ncc2ccn(CCO)c2c1F)c1cnn(Cc2ccc(Cn3ccccc3=O)cc2)c1 [Compound 369]", "className": "N"}
{"compound": "Nc1ncc(CNC(=O)c2cnn(Cc3ccc(Cn4ccccc4=O)cc3)c2)s1 [Compound 36]", "className": "N"}
{"compound": "N=C(N)c1ccc(CNC(=O)c2cnn(Cc3cc(F)c(CC4CC4)c(F)c3)c2)cc1 [Compound 380]", "className": "Y"}
{"compound": "O=C(NCc1cc2ccncc2[nH]1)c1cn(Cc2ccc(Oc3ccccc3)cc2)nc1C(F)(F)F [Compound 186]", "className": "N"}
{"compound": "O=C(NCc1cc2cnccc2[nH]1)c1cn(Cc2ccc(Oc3ccccc3)cc2)nc1C(F)(F)F [Compound 115]", "className": "N"}
{"compound": "COc1ccnc(CNC(=O)c2ncn(Cc3ccc(Cn4cc(F)ccc4=O)cc3)n2)c1F [Compound 32]", "className": "N"}
{"compound": "Cc1cc(N)nc(C)c1CNC(=O)c1cn(Cc2ccc(CN3CCOCC3=O)cc2)nc1C(F)F [Compound 64]", "className": "N"}
{"compound": "Nc1nc2ccc(CNC(=O)c3cnn(Cc4ccc(Cn5ccccc5=O)cc4)c3)cc2s1 [Compound 215]", "className": "N"}
{"compound": "COc1ccc(F)c(CNC(=O)c2cn(Cc3ccc(Cn4ccccc4=O)cc3)nc2CO[C@H]2CCN(C)C2)c1F [Compound 225]", "className": "N"}
{"compound": "Cc1cc(N)nc(C)c1CNC(=O)c1nnn(Cc2ccc(Cn3ccccc3=O)cc2)n1 [Compound 55]", "className": "Y"}
{"compound": "O=C(NCc1nccc(N2CCC2)c1F)c1cn(Cc2ccc(Cn3ccccc3=O)cc2)nc1C1COC1 [Compound 346]", "className": "N"}
{"compound": "Cc1cc(N)nc(C)c1CNC(=O)c1nn(Cc2ccc(Cn3ccccc3=O)cc2)cc1C1CCCO1 (stereo not shown) [Compound 4]", "className": "Y"}
{"compound": "COCc1nn(Cc2ccc(Oc3ccccc3)cc2)cc1C(=O)NCc1nccc(OC)c1F [Compound 117]", "className": "N"}
{"compound": "COc1cc(Cn2cc(C(=O)NCc3ccc(C(=N)N)cc3)cn2)ccc1CC1CC1 [Compound 255]", "className": "N"}
{"compound": "COCc1nn(Cc2ccc(Cn3ccccc3=O)cc2)cc1C(=O)NCc1ncc2c(c1F)OCC2 [Compound 396]", "className": "N"}
{"compound": "COc1ccnc(CNC(=O)c2cn(Cc3ccc(Cn4ccccc4=O)cc3)nc2COC2COC2)c1F [Compound 249]", "className": "N"}
{"compound": "Cc1cc(C)n(Cc2ccc(Cn3cc(C(=O)NCc4ccc(C(=N)N)cc4F)cn3)cc2)n1 [Compound 355]", "className": "Y"}

Source listed as patent EP4737450A1.
